Parameter Overall ranking of antigenicity: see the listing below.
# Tested on: BALB/c female mouse
# ASSAY_COMMENT: Immune response to individual peptide: mouse immunization, then indirect solid-phase immunoenzymatic assay (ELISA) of serum antibodies to peptide
# Type: in vivo
# CONDITION_NOTES: BALB/c mice, i.p. 100 μg peptide+Str-HRP with Freund's adjuvant, serum day 38, ELISA A450

SUBSTANCE	Overall ranking of antigenicity
V-Y-E-S-T-E-T-T-E-R-P-E-H-H-E-F-K-Q-A (VYESTETTERPEHHEFKQA; Mycobacterium Tuberculosis Synthetic Peptide) [SEQ ID 8, oligopeptide from MT Exported Repetitive Protein (Erp)]	3
S-M-G-R-D-I-K-V-Q-F-Q-G (SMGRDIKVQFQG; Mycobacterium Tuberculosis Synthetic Peptide) [SEQ ID 3, oligopeptide from MT Antigen 85 (Ag 85)]	11
G-D-N-I-P-A-K-F-L-E-G-T-L-R-T (GDNIPAKFLEGTLRT; Mycobacterium Tuberculosis Synthetic Peptide) [SEQ ID 7, oligopeptide from MT Antigen 85 (Ag 85)]	7
S-D-P-A-W-K-R-N-D-P-M-V-Q-I-P-R-L (SDPAWKRNDPMVQIPRL; Mycobacterium Tuberculosis Synthetic Peptide) [SEQ ID 6, oligopeptide from MT Antigen 85 (Ag 85)]	1

// data source = patent US20120321656A1
